target: Gal4 DNA binding domain fused to the LBD of LXRα in HEK293 cells (Homo sapiens (Human), UniProt Q13133); test: LXR luciferase transcriptional reporter gene assay, agonist mode, LXRα; format: cell-based
Sequence (Q13133 209-447): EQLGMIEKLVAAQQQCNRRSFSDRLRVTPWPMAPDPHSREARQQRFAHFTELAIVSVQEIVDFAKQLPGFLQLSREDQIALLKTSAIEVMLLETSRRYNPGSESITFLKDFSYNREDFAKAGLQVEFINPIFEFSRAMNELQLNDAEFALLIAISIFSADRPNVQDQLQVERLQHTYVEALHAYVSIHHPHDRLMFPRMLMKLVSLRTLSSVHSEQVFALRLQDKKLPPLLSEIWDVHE
Listed here are compounds together with their documented Cell LXRα efficacy.
readout type: Cell LXRα efficacy

compound="CS(=O)(=O)c1cccc(N2CCN(CC3CCC(O)(C(F)(F)F)CC3)[C@@H](c3ccccc3)C2)c1 (some centres unmarked)" readout_type="Cell LXRα efficacy" value="760 (31) %"
compound=CC(C)[C@@H]1CN(c2ccc(F)c(S(C)(=O)=O)c2)CCN1C[C@H]1CC[C@@H](C(F)(F)F)CC1 readout_type="Cell LXRα efficacy" value="1347 (88) %"
compound=C=C(C)c1cnc(N2CCN(c3ccc(CO)c(S(C)(=O)=O)c3)C[C@H]2C(C)C)nc1C(F)(F)F readout_type="Cell LXRα efficacy" value="186 (63) %"
compound="CS(=O)(=O)c1cc(N2CCN(C[C@H]3CC[C@@H](C(F)(F)F)CC3)[C@@H](c3ccccc3)C2)ccc1C#N (single isomer, unassigned)" readout_type="Cell LXRα efficacy" value="429 (81) %"
compound="CS(=O)(=O)c1cccc(N2CCN(Cc3ccc(C(F)(F)F)c(F)c3)[C@@H](c3ccccc3)C2)c1 (single isomer, unassigned)" readout_type="Cell LXRα efficacy" value="1479 (62) %"
compound=CC(C)(C)OC(=O)N1CCN(c2cccc(S(C)(=O)=O)c2)C[C@H]1Cc1ccccc1 readout_type="Cell LXRα efficacy" value="1146 (34) %"
compound=CS(=O)(=O)c1cccc(N2CCN(c3nccc(C(F)(F)F)n3)[C@H](C(F)(F)F)C2)c1 readout_type="Cell LXRα efficacy" value="2235 (40) %"
compound="CC(C)[C@H]1CN(c2ccc(CO)c(S(C)(=O)=O)c2)CCN1CC1CCC(O)(C(F)(F)F)CC1 (some centres unmarked)" readout_type="Cell LXRα efficacy" value="106 (86) %"
compound=COC(=O)c1cnc(N2CCN(c3ccc(F)c(S(C)(=O)=O)c3)C[C@H]2C(C)C)nc1C(F)(F)F readout_type="Cell LXRα efficacy" value="543 (54) %"
compound=CCOC(=O)c1csc(-c2ccc(N3CCN(C(=O)OC(C)(C)C)[C@H](C(C)C)C3)cc2S(C)(=O)=O)n1 readout_type="Cell LXRα efficacy" value="4227 (62) %"
compound="CS(=O)(=O)c1cccc(N2CCN(C[C@H]3CC[C@@H](C(F)F)CC3)[C@@H](c3ccccc3)C2)c1 (single isomer, unassigned)" readout_type="Cell LXRα efficacy" value="127 (39) %"
compound=CC(C)[C@@H]1CN(c2ccc(C#N)c(S(C)(=O)=O)c2)CCN1c1nccc(C(F)(F)F)n1 readout_type="Cell LXRα efficacy" value="1115 (69) %"
compound="NS(=O)(=O)c1cccc(N2CCN(C[C@H]3CC[C@H](C(F)(F)F)CC3)[C@@H](c3ccccc3)C2)c1 (single isomer, unassigned)" readout_type="Cell LXRα efficacy" value="2829 (39) %"
compound="CS(=O)(=O)c1cc(N2CCN(C[C@H]3CC[C@@H](C(F)(F)F)CC3)[C@H](c3ccccc3)C2)ccc1C(N)=O (single isomer, unassigned)" readout_type="Cell LXRα efficacy" value="4828 (13) %"
